Molecular target: HLA-B*5401 (Human)
Assay: competition vs 125I probe, purified HLA
OUTCOME MEASURE: IC50 (nM)

BINDER	MEAS VALUE
FPALNKMFCQL [48.0234 FPALNKMFCQL (p53.127.F1)]	500
